Reference for the values: patent US11492335B2

Measured IC50 accompanies every entry in the list below.
Biological target: recombinant human MAO-B (monoamine oxidase-B) (Homo sapiens, UniProt P27338)
Construct: purchased Sigma-Aldrich
Sequence (P27338 1-520): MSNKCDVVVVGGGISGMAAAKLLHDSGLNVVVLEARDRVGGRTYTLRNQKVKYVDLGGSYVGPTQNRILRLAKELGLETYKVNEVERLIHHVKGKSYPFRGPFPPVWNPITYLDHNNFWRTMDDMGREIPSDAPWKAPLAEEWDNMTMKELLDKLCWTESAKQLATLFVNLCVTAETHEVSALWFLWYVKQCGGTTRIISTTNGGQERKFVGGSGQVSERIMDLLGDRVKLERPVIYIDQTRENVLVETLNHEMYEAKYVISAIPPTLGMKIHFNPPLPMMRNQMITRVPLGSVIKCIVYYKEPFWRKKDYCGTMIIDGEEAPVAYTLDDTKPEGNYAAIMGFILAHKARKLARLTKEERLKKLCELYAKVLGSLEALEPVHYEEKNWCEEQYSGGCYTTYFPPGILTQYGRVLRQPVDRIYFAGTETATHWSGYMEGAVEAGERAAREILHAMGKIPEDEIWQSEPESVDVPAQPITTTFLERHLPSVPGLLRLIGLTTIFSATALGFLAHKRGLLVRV
Experiment: Activity on recombinant human MAO-B, Amplex Red method, 1 mM benzylamine substrate
Assay type: biochemical
Conditions: 1 mM benzylamine, read-out: Inhibitory Activity (IC50, nM) MAO-B
Counter-ions that a name gives are not always drawn.
Give the value, in units of nM, as a plain number.

Consider the worked cases shown below.
[
  {
    "Compound": "NC/C(=C/F)Cn1ncn(-c2ccc(Br)cc2F)c1=O [Example 11, hydrochloride]",
    "Reported Metric": "IC50",
    "Scale Unit": "nM",
    "Obs Value": 12
  },
  {
    "Compound": "NC/C(=C\\F)Cn1ncn(-c2cnc(Br)cn2)c1=O",
    "Reported Metric": "IC50",
    "Scale Unit": "nM",
    "Obs Value": 112
  }
]

IC50 on recombinant human MAO-B (monoamine oxidase-B) (Homo sapiens, UniProt P27338) for NC/C(=C/F)Cn1ncn(-c2cc(F)c(Br)c(F)c2)c1=O is 4.4
